Answer each item with its documented pIC50.
target: HLA A*3201 (Homo sapiens, UniProt P04439, A270S/D101S/D185E/E176V/E277Q/F133L/G103R/G107R/G231S/H175R/I121M/I218V/I322F/K168Q/L105A/L300P/L318F/M331R/P208A/P217A/Q94H/R106L/R138Q/S129P/T104I/T323A/T345S/V100E/V321M/V358M); experiment: biochemical
Where a SMILES comes first, the peptide text is derived from it.
Answers are plain numbers, as −log10 of the molar value.

Compound: CC(C)C[C@H](NC(=O)[C@@H](N)C(C)C)C(=O)N[C@@H](Cc1ccc(O)cc1)C(=O)N[C@@H](CC(N)=O)C(=O)N[C@@H](CC(N)=O)C(=O)N[C@H](C(=O)N[C@H](C(=O)N[C@@H](CCC(=O)O)C(=O)N[C@@H](Cc1ccccc1)C(=O)O)C(C)C)C(C)C [3102.0424] (H-VLYNNVVEF-OH)
Quantity Name: pIC50
Observed Measurement: 8.82

Shifting focus to the compound that follows.
Look at this compound and give its reported pIC50. CSCC[C@H](NC(=O)[C@@H](NC(=O)[C@@H](N)CCCCN)[C@@H](C)O)C(=O)N[C@@H](C)C(=O)N1CCC[C@H]1C(=O)N[C@H](C(=O)N[C@@H](Cc1c[nH]cn1)C(=O)N[C@H](C(=O)N[C@@H](Cc1ccc(O)cc1)C(=O)O)[C@@H](C)O)C(C)C [3102.0458] (H-KTMAPVHTY-OH)
8.34

* * *

molecular target: HLA A*3201 (Homo sapiens, UniProt P04439, A270S/D101S/D185E/E176V/E277Q/F133L/G103R/G107R/G231S/H175R/I121M/I218V/I322F/K168Q/L105A/L300P/L318F/M331R/P208A/P217A/Q94H/R106L/R138Q/S129P/T104I/T323A/T345S/V100E/V321M/V358M); assay: biochemical; format: binding
Quantity Name: Normalized average relative binding affinity(ARB)
Numbers only.

Residue Sequence: XXXXXXFXX [3064.0125]
Observed Measurement: 0.44
//
Residue Sequence: XXXXXVXXX [3064.0118]
Observed Measurement: 1.0
//
Residue Sequence: XXXXXXQXX [3064.0134]
Observed Measurement: 0.33
//
Residue Sequence: XXXWXXXXX [3064.0079]
Observed Measurement: 0.29
//
Residue Sequence: XXXXXXGXX [3064.0126]
Observed Measurement: 0.051
//
Residue Sequence: XXXXXXDXX [3064.0123]
Observed Measurement: 0.026
//
Residue Sequence: XXXXXXXDX [3064.0143]
Observed Measurement: 0.10

Next:
Need Normalized average relative binding affinity(ARB), item XXXVXXXXX [3064.0078]
0.27

* * *

target: HLA A*3001 (Homo sapiens, UniProt P04439, D140H/D185E/E176W/F33S/G80R/H175R/K168Q/R138E/R41S); assay: biochemical; type: binding
Provide the recorded Normalized average relative binding affinity(ARB) for the entries that follow.
Answers are plain numbers.

Look over these answered cases.
Residue Sequence: XXXEXXXXX [3064.0064]
Observed Measurement: 0.34

Residue Sequence: XXXXYXXXX [3064.0100]
Observed Measurement: 0.21

Residue Sequence: XXXFXXXXX [3064.0065]
Observed Measurement: 1.0

Residue Sequence: XXXHXXXXX [3064.0067]
Observed Measurement: 0.45

Residue Sequence: XXXXQXXXX [3064.0094]
Observed Measurement: 0.20

Residue Sequence: XXXXXXGXX [3064.0126]
Observed Measurement: 0.044

Residue Sequence: XXXXXXHXX [3064.0127]
Observed Measurement: 0.082

Residue Sequence: XXXXXFXXX [3064.0105]
Observed Measurement: 1.0

Residue Sequence: XXXXXXVXX [3064.0138]
Observed Measurement: 0.19

Residue Sequence: XXXPXXXXX [3064.0073]
Observed Measurement: 0.59

// each sequence listed below needs its Normalized average relative binding affinity(ARB)
1. XXXKXXXXX [3064.0069]
2. XXXXXXAXX [3064.0121]
3. XXXXXXYXX [3064.0140]
4. XXXXXXXEX [3064.0144]
5. XXXXXXEXX [3064.0124]
6. XXXXXXMXX [3064.0131]

0.32
0.12
0.20
0.12
0.050
0.32

Would you be so kind as to report Normalized average relative binding affinity(ARB) for each listed record?
1. XXXIXXXXX [3064.0068]
2. XXXXIXXXX [3064.0088]
3. XXXXKXXXX [3064.0089]
4. XXXXEXXXX [3064.0084]
5. XXXXXXXAX [3064.0141]
6. XXXMXXXXX [3064.0071]
7. XXXXFXXXX [3064.0085]

0.34
0.20
0.16
0.099
0.53
0.38
0.38

# return Normalized average relative binding affinity(ARB) for each item in the list
1. XXXXXXXVX [3064.0158]
2. XXXXXXXYX [3064.0160]
3. XXXXHXXXX [3064.0087]
4. XXXXXXXWX [3064.0159]
5. XXXXNXXXX [3064.0092]
6. XXXXAXXXX [3064.0081]
7. XXXXXXXPX [3064.0153]

0.19
1.0
0.14
0.16
0.12
0.48
0.80

Dear reader, for each entry below, please note its Normalized average relative binding affinity(ARB).
1. XXXTXXXXX [3064.0077]
2. XXXXXXNXX [3064.0132]
3. XXXXWXXXX [3064.0099]
4. XXXXXVXXX [3064.0118]
5. XXXXXXXDX [3064.0143]
6. XXXYXXXXX [3064.0080]
7. XXXXDXXXX [3064.0083]

1. 0.44
2. 0.10
3. 0.16
4. 0.22
5. 0.052
6. 0.42
7. 0.041

Could you tell me Normalized average relative binding affinity(ARB) for each of these sequences? They are listed below.
1. XXXXXTXXX [3064.0117]
2. XXXXXXTXX [3064.0137]
3. XXXXCXXXX [3064.0082]
4. XXXXVXXXX [3064.0098]
5. XXXXXXPXX [3064.0133]
6. XXXXXXFXX [3064.0125]
7. XXXXXXXFX [3064.0145]
8. XXXXXXXIX [3064.0148]

[0.27, 0.11, 0.12, 0.35, 1.0, 0.18, 0.76, 0.21]

Please look at the items below and tell me Normalized average relative binding affinity(ARB) for each one, in order.
1. XXXXXXXRX [3064.0155]
2. XXXWXXXXX [3064.0079]
3. XXXXXXXNX [3064.0152]
4. XXXXXNXXX [3064.0112]
5. XXXXXXXMX [3064.0151]
6. XXXXTXXXX [3064.0097]
7. XXXRXXXXX [3064.0075]

0.35
0.45
0.54
0.13
0.14
0.18
0.52

For the 2 sequences below, give their Normalized average relative binding affinity(ARB) values.
1. XXXXXXCXX [3064.0122]
2. XXXXXXXCX [3064.0142]

[0.21, 0.11]

Quick one: give me Normalized average relative binding affinity(ARB) for each item below, same order please.
1. XXXXXDXXX [3064.0103]
2. XXXLXXXXX [3064.0070]
3. XXXXXYXXX [3064.0120]
4. XXXXXXXQX [3064.0154]
5. XXXXXSXXX [3064.0116]
6. XXXXXXXHX [3064.0147]
7. XXXXMXXXX [3064.0091]

0.016
0.52
0.21
0.27
0.44
0.44
0.33

* * *

molecular target: HLA B*5401 (Homo sapiens, UniProt P01889, A329T/C349S/D138N/D201E/E176V/E187T/E204Q/E69G/I76V/K202T/L119W/R155S/R180L/S121T/S35A/S48A/V127L/V306I/V36M/Y140L); assay type: binding
Please respond with reported Normalized average relative binding affinity(ARB) for every item in the list.
Give bare numbers.

Solved entries (count: 5):
Residue Sequence: XXXXFXXXX [3064.0085]
Observed Measurement: 1.0

Residue Sequence: XXXXXXXRX [3064.0155]
Observed Measurement: 0.059

Residue Sequence: XXXXMXXXX [3064.0091]
Observed Measurement: 0.72

Residue Sequence: XXXXXXXSX [3064.0156]
Observed Measurement: 1.0

Residue Sequence: XXXPXXXXX [3064.0073]
Observed Measurement: 0.13

Can you give me Normalized average relative binding affinity(ARB) for all of these, one by one?
1. XXXXXXXDX [3064.0143]
2. XXXXXGXXX [3064.0106]
3. XXXXHXXXX [3064.0087]

0.038
0.14
0.19

Hi, could you look up Normalized average relative binding affinity(ARB) for each item in my list?
1. XXXXXXKXX [3064.0129]
2. XXXXXXLXX [3064.0130]

0.089
0.13
